# pIC50 listing for each entry below
Target: HLA-B*3501 (Homo sapiens, UniProt P01889, A329T/A93T/A95T/C349S/D201E/D98Y/E176V/E187L/E204Q/E69T/I218V/K202T/L119I/Q94N/R155S/R180L/S121R/S35A/S48A/T118I/V127L/V306I/V36M/Y140S/Y91F)
Test: biochemical
Conditions: B*3501 binding affinity (IC50)
No end group written: not given here.
Remember, pIC50 is on a log scale: it is -log10 of the molar concentration.

See these solved cases before continuing.
[
  {
    "Entry sequence": "LPPLERLTI",
    "pIC50": 4.87
  },
  {
    "Entry sequence": "TPTGWGLAI",
    "pIC50": 5.29
  },
  {
    "Entry sequence": "APCNFFTSA",
    "pIC50": 5.09
  },
  {
    "Entry sequence": "FPGPGPGPL",
    "pIC50": 6.37
  },
  {
    "Entry sequence": "FPLTFGWCI",
    "pIC50": 6.79
  }
]

# input for lookup
The sequence TPAGPGPGVF showed pIC50 equal to 6.43
